Assay notes: Acute toxicity (LD50), intravenous injection
Experimental conditions: mouse, in vivo, male ddY-strain mice, read-out: LD50, Table 19
Known LD50 at 72 h of a selection of compounds

Compound	LD50 at 72 h [mg/kg]
CC(C)CC(CCn1nc(N)c2ccccc21)N1CCCCC1 (centres unmarked) [Compound (30)]	153
c1ccc2c(NCCCN3CCCCCC3)n[nH]c2c1 [Compound (5), 3-(3-homopiperidinopropylamino)indazole]	175
Nc1nn(CCCCCCN2CCCCC2)c2ccccc12 [Compound (19), 1-(6-piperidinohexyl)-3-aminoindazole]	144
CN1CCN(CCCn2nc(N)c3ccccc32)CC1 [Compound (32)]	368
CC(C)CC(CCNc1n[nH]c2ccccc12)N1CCCCC1 (centres unmarked) [Compound (15)]	144

---

Test system: carrageenin edema in rat's paw
Assay notes: Carrageenin Edema Test in Rat's Paw (anti-inflammatory activity)
Assay type: in vivo, Female Wistar rats
Experimental conditions: Rattus norvegicus; 100 mg/kg, oral, hydrochloric acid salts, 3 h after carrageenin; read-out: Inhibition (carrageenin edema), Table 1
Known inhibition in vivo at 100 mg/kg of a selection of molecules

Molecule	inhibition in vivo at 100 mg/kg [%]
CCN(CC)CCCNc1nn(CCCN2CCCCC2)c2ccccc12	29
CCN(CC)CCCn1nc(NCCCN2CCCCC2)c2ccccc21	28
CCCn1nc(N)c2ccccc21 [Compound C-2, 1-propyl-3-aminoindazole, reference compound]	7
CCN(CC)CCCNc1n[nH]c2ccccc12	66
CC1CCCCN1CCCn1nc(N)c2ccccc21 (stereo not drawn)	51
c1ccc2c(c1)c(NCCCN1CCCCC1)nn2CCCN1CCCCC1	28
CN(C)CCn1nc(N)c2ccccc21	44
CCN(CC)CCCNc1nn(CCCN(CC)CC)c2ccccc12	29
CCCNc1n[nH]c2ccccc12 [Compound C-1, 3-(propylamino)indazole, reference compound]	7
c1ccc2c(NCCCN3CCCCC3)n[nH]c2c1	55
Nc1nn(CCCN2CCCCC2)c2ccccc12	54
Nc1nn(CCc2ccccc2)c2ccccc12 [Compound C-3, 1-(2-phenylethyl)-3-aminoindazole, reference compound]	7
CC1CCCCN1CCCNc1n[nH]c2ccccc12 (stereo not drawn)	67
CN1CCN(CCCNc2n[nH]c3ccccc23)CC1	30
c1ccc2c(NCCCN3CCCC3)n[nH]c2c1	30

---

Assay notes: Acute toxicity (LD50), intravenous injection
Experimental conditions: mouse, in vivo, male ddY-strain mice, read-out: LD50, Table 19
Measured endpoint: LD50 at 72 h

Molecule	Measured endpoint	Assay value
CCN(CC)CCCn1nc(NCCCCCCN2CCCCC2)c2ccccc21	LD50 at 72 h	193 mg/kg
CCCCN(CCCC)CCCn1nc(N)c2ccccc21	LD50 at 72 h	124 mg/kg
CCN(CC)CCCn1nc(NCCC(C)N2CCCCC2)c2ccccc21 (stereo not drawn)	LD50 at 72 h	169 mg/kg
CCN(CC)CCCNc1n[nH]c2ccccc12	LD50 at 72 h	233 mg/kg
CC(C)CC(CCNc1nn(CCC(C)N2CCCCC2)c2ccccc12)N1CCCCC1 (stereo not drawn)	LD50 at 72 h	123 mg/kg
CC(CCNc1nn(CCCN2CCCCC2)c2ccccc12)N1CCCCC1 (stereo not drawn)	LD50 at 72 h	99 mg/kg
c1ccc2c(NCCCN3CCCC3)n[nH]c2c1	LD50 at 72 h	97 mg/kg
c1ccc2c(c1)c(NCCCCCCN1CCCCC1)nn2CCCN1CCCCC1	LD50 at 72 h	122 mg/kg
CC(CCn1nc(NCCCN2CCCCC2)c2ccccc21)N(C)C (stereo not drawn)	LD50 at 72 h	212 mg/kg
CCCCN(CCCC)CCCNc1n[nH]c2ccccc12	LD50 at 72 h	115 mg/kg
CC(CCn1nc(NCCCN2CCCCC2)c2ccccc21)N1CCCCC1 (stereo not drawn)	LD50 at 72 h	98 mg/kg
CC1CCCCN1CCCn1nc(N)c2ccccc21 (stereo not drawn)	LD50 at 72 h	102 mg/kg
CC(CCNc1n[nH]c2ccccc12)N1CCCCC1 (stereo not drawn)	LD50 at 72 h	95 mg/kg
CCN(CC)C(C)CCNc1n[nH]c2ccccc12 (stereo not drawn)	LD50 at 72 h	184 mg/kg
CCN(CC)CCCn1nc(NCCCN2CCCCC2)c2ccccc21	LD50 at 72 h	172 mg/kg
ClC1CCN(CCCNc2n[nH]c3ccccc23)CC1	LD50 at 72 h	347 mg/kg
CC1CCCC(C)N1CCCn1nc(N)c2ccccc21 (stereo not drawn)	LD50 at 72 h	152 mg/kg
Nc1nn(CCCN2CCC(Cl)CC2)c2ccccc12	LD50 at 72 h	356 mg/kg
